Target: triosephosphate isomerase from G. lamblia (GlTIM; dGlTIM) (Giardia duodenalis, UniProt P36186, C202A)
Experiment: GDH-coupled TIM activity assay after […] h incubation at […] °C

- compound: "CCN(CC)C(=S)SSC(=S)N(CC)CC [disulfiram]"
  IC50: "6.6 µM"

Where these numbers come from: paper PMC5727346
